Reported melting point values for the following compounds.
Counter-ions that a name gives are not always drawn.

Answered examples (6):
>>> df
                                   compound        readout  value_measured
0  NCc1nc(-c2ccc(-c3ccccc3)cc2)cn1Cc1ccccc1 (as salt: hydrochloride)  melting point   170 to 174 °C
1  CCCCOC(=O)NCCc1nc(-c2ccc(-c3ccc(Cl)c(Cl)c3)cc2)c[nH]1  melting point        137.5 °C
2  CC(C)(C)c1ccc(-c2c[nH]c(CCNC(=O)OCC3CCC3)n2)cc1  melting point          103 °C
3  CCN(CC)c1ccc(-c2c[nH]c([C@@H](N)C3CCCCC3)n2)cc1 (as salt: hydrochloride)  melting point   216 to 217 °C
4  Fc1cccc(-c2c[nH]c([C@@H](NC3CCC3)C3CCCCC3)n2)c1  melting point   172 to 176 °C
5  c1ccc(-c2c[nH]c([C@@H](NCC3CCCCC3)C3CCCCC3)n2)cc1 (as salt: hydrochloride)  melting point   180 to 182 °C

Return reported melting point. Input compound: CCCCCCC(N)c1nc(-c2ccc(Cl)c(Cl)c2)c[nH]1 (racemic) (as salt: hydrochloride)
148 to 150 °C

###

# reported melting point; entries follow
Where a name gives a salt, the structure may show the parent alone.

Consider the following illustrative entries.
>>> df
                                   molecule  value_measured
0  CCC[C@@H](NCc1ccccc1)c1nc(-c2ccccc2)c[nH]1 [Example 214]   218 to 220 °C
1  CCCCOC(=O)NCCc1nc(-c2ccc(N3CCCC3)cc2)c[nH]1 [Example 313]          125 °C

# return recorded melting point for input Fc1ccc(-c2c[nH]c([C@@H](NCC3CCCCC3)C3CCCCC3)n2)cc1 (as salt: hydrochloride) [Example 295]
190 to 192 °C

// Input: CCCCCCC(NCc1ccccc1)c1nc(-c2ccccc2)c[nH]1 (racemic) [Example 145] . Output its melting point only.
160 to 162 °C

###

Structures can show the parent of a compound that is named as a salt.
Reported melting point values are given for each entry in this list.

Solved entries:
In [3]: df
Out[3]:
                                   compound  value_measured
0  CC(C)(C)OC(=O)N(Cc1ccccc1)Cc1nc(-c2ccc(-c3ccccc3)cc2)c[nH]1 [Example 165]   130 to 132 °C
1  CC(C)(C)OC(=O)N[C@@H](Cc1c[nH]c2ccccc12)c1nc(-c2ccccc2)c(-c2ccccc2)[nH]1 [Example 147]   142 to 143 °C
2  Brc1cccc(-c2c[nH]c([C@@H](NC3CCCCC3)C3CCCCC3)n2)c1 (as salt: hydrochloride) [Example 297]        230.4 °C
3  O=C(NCCc1nc(-c2ccc(N3CCCC3)cc2)c[nH]1)OCC1CCCCC1 [Example 326]        128.5 °C
4  CC[C@H](NCc1ccccc1)c1nc(-c2ccccc2)c(-c2ccccc2)[nH]1 [Example 204]   182 to 184 °C

Hello, please tell me recorded melting point for this one: O=C(N[C@H](Cc1c[nH]c2ccccc12)c1nc(-c2ccccc2)c[nH]1)c1ccccc1 [Example 98]
218 to 220 °C

###

melting point overview
Structures can show the parent of a compound that is named as a salt.

                                   compound  value_measured
0  CCN(CC)c1ccc(-c2c[nH]c([C@@H](NC3CCCCC3)C3CCCCC3)n2)cc1 (as salt: hydrochloride) [Example 292]   204 to 210 °C
1  CCCOC(=O)NCCc1nc(-c2ccc(-c3ccccc3)cc2)c[nH]1 [Example 245]        141.2 °C
2  O=C(NCCc1nc(-c2ccc(-c3ccccc3)cc2)c[nH]1)OCCc1ccccc1 [Example 391]   142 to 143 °C
3  O=C(NCCc1nc(-c2ccc(-c3ccccc3)cc2)c[nH]1)OCc1ccccc1 [Example 237]   134 to 136 °C
4  Cc1[nH]c(CN(C)C(=O)OC(C)(C)C)nc1-c1ccccc1 [Example 153]     70 to 72 °C

Supply recorded melting point for CC(C)(NCc1ccccc1)c1nc(-c2ccccc2)c[nH]1 [Example 139] here.
136 to 138 °C

Fill in reported melting point for this entry: CC[C@H](NCc1ccccc1)c1nc(-c2ccc(-c3ccccc3)cc2)c[nH]1 [Example 198]
220 to 222 °C

Please report melting point for the following compound: CCCCCCC(NCc1ccccc1)c1nc(-c2cccc(Br)c2)c[nH]1 (racemic) (as salt: acetate) [Example 193]
115 to 116 °C

Tell me melting point reported for c1[nH]c([C@@H](NC2CCCCC2)C2CCCCC2)nc1C1CCCCC1 (as salt: hydrochloride) [Example 82]
180 to 182 °C

Input CC(C)(N)c1nc(-c2ccccc2)c[nH]1 (as salt: hydrochloride) , output reported melting point.
200 to 204 °C

Let me know recorded melting point for CCCCCCN[C@@H](Cc1c[nH]c2ccccc12)c1nc(-c2ccccc2)c[nH]1 (as salt: hydrochloride) [Example 53] , thanks.
132 to 134 °C

Give melting point for the following compound: O=C(NCCc1nc(-c2ccc(-c3ccccc3)cc2)c[nH]1)OCCCC(F)(F)F [Example 345]
157.3 °C

Complete the entry with melting point for N[C@H](CC1CCCCC1)c1nc(-c2ccc(F)cc2)c[nH]1 (as salt: hydrochloride) [Example 308]
148 to 149 °C

###

Measured melting point, listed per entry.
Where a name gives a salt, the structure may show the parent alone.

Consider the worked cases shown below.
In [3]: df
Out[3]:
                                   compound        readout  value_measured
0  Brc1cccc(-c2c[nH]c([C@@H](NCC3CCCCC3)C3CCCCC3)n2)c1 (as salt: hydrochloride) [Example 306]  melting point        206.3 °C
1  CC[C@H](NC(=O)OC(C)(C)C)c1nc(-c2ccccc2)c(-c2ccccc2)[nH]1 [Example 197]  melting point   136 to 138 °C
2  CCC[C@@H](NC(=O)OC(C)(C)C)c1nc(-c2ccc(-c3ccccc3)cc2)c[nH]1 [Example 208]  melting point        145.6 °C
3  CCCCOC(=O)NCc1nc(-c2ccc(-c3ccccc3)cc2)c[nH]1 [Example 78]  melting point   130 to 132 °C
4  Cn1cc(-c2ccccc2)nc1[C@@H](Cc1c[nH]c2ccccc12)NC(=O)OC(C)(C)C [Example 148]  melting point    96 to 100 °C

Quickly give me recorded melting point for CC(C)(C)c1c[nH]c([C@H](N)Cc2c[nH]c3ccccc23)n1 (as salt: hydrochloride)
230 to 232 °C

Look up and state reported melting point for CCCCOC(=O)NCCc1nc(-c2ccc(-c3ccc(Cl)cc3)cc2)c[nH]1 [Example 395]
164.2 °C

For the compound CCCCCCC(NCc1ccccc1)c1nc(-c2cccc(OC)c2)c[nH]1 (racemic) [Example 216] , report melting point.
141 to 142 °C

###

Structures can show the parent of a compound that is named as a salt.
Entries and their melting point

In [3]: df
Out[3]:
                                   compound  value_measured
0  CNCc1nc(-c2ccccc2)c(C)[nH]1 (as salt: hydrochloride)   218 to 220 °C
1  c1ccc(CN[C@H](Cc2c[nH]c3ccccc23)c2nc(-c3ccccc3)c(-c3ccccc3)[nH]2)cc1   146 to 148 °C
2  O=C(N[C@H](Cc1c[nH]c2ccccc12)c1nc(-c2ccccc2)cs1)c1ccccc1   108 to 110 °C
3  CCC[C@@H](NCc1ccccc1)c1nc(-c2ccc(-c3ccccc3)cc2)c[nH]1         78.6 °C
4  Cc1[nH]c([C@@H](Cc2c[nH]c3ccccc23)NCc2ccccc2)nc1-c1ccccc1   120 to 122 °C
5  NCCCc1nc(-c2ccc(F)cc2)c[nH]1 (as salt: hydrochloride)   245 to 246 °C
6  CCCCC(NCc1ccccc1)c1nc(-c2ccc(-c3ccccc3)cc2)c[nH]1 (racemic)   201 to 203 °C
7  CC(C)(C)c1ccc(-c2c[nH]c(CCNC(=O)OCC3CCCCC3)n2)cc1   104 to 106 °C
8  CC(C)(C)CCOC(=O)NCCc1nc(-c2ccc(-c3ccccc3)cc2)c[nH]1         98.4 °C
9  CCCCCCC(NCC(C)C)c1nc(-c2ccccc2)c[nH]1 (racemic) (as salt: acetate)     70 to 72 °C

State its melting point for this compound: CCCCCCC(NCc1ccccc1)c1nc(-c2ccc(C)cc2)c[nH]1 (racemic) (as salt: hydrochloride)
185 to 188 °C

Complete the entry with melting point for `CCCCOC(=O)NCCc1nc(-c2ccc(C3CCCCC3)cc2)c[nH]1`
138.4 °C

Indicate the recorded melting point value for this compound: `CC(C)(C)c1ccc(-c2c[nH]c(CCNC(=O)OCc3ccccc3)n2)cc1`
173 °C

Complete the entry with melting point for CCCCC(N)c1nc(-c2ccccc2)c[nH]1 (racemic) (as salt: hydrochloride)
178 to 180 °C

Specify melting point for CCCCCCC(N)c1nc(-c2ccc(OC)cc2)c[nH]1 (racemic) (as salt: hydrochloride) and stop.
231 to 232 °C

Let me know recorded melting point for CCCCCCC(N)c1nc(-c2ccc(-c3ccccc3)cc2)c[nH]1 (racemic) (as salt: hydrochloride) , thanks.
182 to 184 °C
